Measured IC50 values are reported for all entries that follow.
system-name: CDK1/CycB (Homo sapiens (Human), UniProt P06493)
Sequence (P06493 whole entry): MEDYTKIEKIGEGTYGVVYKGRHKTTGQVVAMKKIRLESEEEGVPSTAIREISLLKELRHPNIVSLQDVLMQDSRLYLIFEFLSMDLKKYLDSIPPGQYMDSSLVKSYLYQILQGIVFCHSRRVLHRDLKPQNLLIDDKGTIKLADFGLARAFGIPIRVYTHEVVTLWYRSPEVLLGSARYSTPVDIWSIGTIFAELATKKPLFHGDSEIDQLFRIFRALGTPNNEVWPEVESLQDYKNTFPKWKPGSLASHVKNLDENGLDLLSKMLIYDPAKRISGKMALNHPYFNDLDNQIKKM
Sequence (P14635 whole entry partner): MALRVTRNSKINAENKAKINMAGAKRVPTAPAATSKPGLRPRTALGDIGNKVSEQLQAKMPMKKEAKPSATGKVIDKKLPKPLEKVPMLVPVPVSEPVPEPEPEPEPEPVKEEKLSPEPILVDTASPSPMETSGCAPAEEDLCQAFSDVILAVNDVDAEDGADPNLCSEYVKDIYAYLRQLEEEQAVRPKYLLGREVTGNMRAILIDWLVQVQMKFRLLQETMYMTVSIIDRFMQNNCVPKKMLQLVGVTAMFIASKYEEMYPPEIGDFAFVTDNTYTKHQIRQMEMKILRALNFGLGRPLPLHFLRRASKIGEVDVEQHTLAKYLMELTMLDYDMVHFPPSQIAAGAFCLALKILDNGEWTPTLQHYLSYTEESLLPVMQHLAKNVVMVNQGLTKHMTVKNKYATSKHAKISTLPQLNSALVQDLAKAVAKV
test: LANCE Ultra kinase activity inhibition assay, CDK1/CycB
Assay type: biochemical
test-settings: ATP 4 μM, highest compound concentration 10 μM

compound | val
C[C@H](c1cc(N[C@H]2C[C@H](N)C2)n2nccc2n1)C1CC1 [Compound Z-62-P1] | 1.71 µM
CC(c1cc(N[C@H]2CC[C@H](N)C2)n2nccc2n1)C1(C)CC1 (some centres unmarked) | 0.772 µM
N[C@H]1CC[C@H](Nc2cc(C(C3CC3)C3CC3)nc3c(C4CC4)cnn23)C1 | 1.61 µM
CC(c1cc(N[C@H]2CC[C@H](N)CC2)n2nccc2n1)C1CC1 (some centres unmarked) | 4.37 µM

In: Provide one value: measured IC50 of CCC(c1cc(N[C@H]2CC[C@H](N)C2)n2ncc(C)c2n1)C1CC1 (some centres unmarked)
Out: 1.36 µM

In: Provide one value: measured IC50 of C[C@@H](c1cc(N[C@H]2C[C@H](N)C2)n2nccc2n1)C1CC1 [Compound Z-62-P2]
Out: 1.82 µM

In: Provide one value: measured IC50 of Cc1cnn2c(N[C@H]3CC[C@H](N)C3)cc(C(C)C3(C)CC3)nc12 (some centres unmarked)
Out: 3.92 µM

In: Provide one value: measured IC50 of "CC1(Cc2cc(N[C@H]3CC[C@H](N)C3)n3ncc(Cl)c3n2)CC1"
Out: 1.89 µM

In: Provide one value: measured IC50 of C[C@@H](c1cc(N[C@H]2CC[C@H](N)C2)n2nccc2n1)C1(C)CC1 [Compound Z-27-P1]
Out: 1.21 µM

In: Provide one value: measured IC50 of Cc1cnn2c(N[C@H]3CC[C@H](N)C3)cc([C@H](C)C3(C)CC3)nc12 [Compound Z-26-P1]
Out: 1.62 µM

In: Provide one value: measured IC50 of Cc1cnn2c(N[C@H]3CC[C@H](N)C3)cc([C@@H](C)C3CC3)nc12 [Compound Z-32-P2]
Out: 8.22 µM

In: Provide one value: measured IC50 of CC(c1cc(NC2CCN(N)C2)n2ncc(Cl)c2n1)C1CC1 (centres unmarked) [Compound Z-48]
Out: 1.47 µM

----------
Measured IC50 values are reported for all entries that follow.
system-name: CDK9/CycT (Homo sapiens (Human), UniProt P50750)
Sequence (P50750 whole entry): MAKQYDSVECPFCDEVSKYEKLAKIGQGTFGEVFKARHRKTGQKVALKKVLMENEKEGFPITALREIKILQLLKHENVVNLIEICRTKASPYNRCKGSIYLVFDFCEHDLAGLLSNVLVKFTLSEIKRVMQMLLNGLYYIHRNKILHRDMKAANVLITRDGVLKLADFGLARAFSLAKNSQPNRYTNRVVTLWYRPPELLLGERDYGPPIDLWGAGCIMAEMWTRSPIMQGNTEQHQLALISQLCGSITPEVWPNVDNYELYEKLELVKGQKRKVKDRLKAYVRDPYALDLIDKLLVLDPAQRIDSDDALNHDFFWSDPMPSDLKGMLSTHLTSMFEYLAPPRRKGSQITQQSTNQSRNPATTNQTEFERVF
Sequence (O60563 whole entry partner): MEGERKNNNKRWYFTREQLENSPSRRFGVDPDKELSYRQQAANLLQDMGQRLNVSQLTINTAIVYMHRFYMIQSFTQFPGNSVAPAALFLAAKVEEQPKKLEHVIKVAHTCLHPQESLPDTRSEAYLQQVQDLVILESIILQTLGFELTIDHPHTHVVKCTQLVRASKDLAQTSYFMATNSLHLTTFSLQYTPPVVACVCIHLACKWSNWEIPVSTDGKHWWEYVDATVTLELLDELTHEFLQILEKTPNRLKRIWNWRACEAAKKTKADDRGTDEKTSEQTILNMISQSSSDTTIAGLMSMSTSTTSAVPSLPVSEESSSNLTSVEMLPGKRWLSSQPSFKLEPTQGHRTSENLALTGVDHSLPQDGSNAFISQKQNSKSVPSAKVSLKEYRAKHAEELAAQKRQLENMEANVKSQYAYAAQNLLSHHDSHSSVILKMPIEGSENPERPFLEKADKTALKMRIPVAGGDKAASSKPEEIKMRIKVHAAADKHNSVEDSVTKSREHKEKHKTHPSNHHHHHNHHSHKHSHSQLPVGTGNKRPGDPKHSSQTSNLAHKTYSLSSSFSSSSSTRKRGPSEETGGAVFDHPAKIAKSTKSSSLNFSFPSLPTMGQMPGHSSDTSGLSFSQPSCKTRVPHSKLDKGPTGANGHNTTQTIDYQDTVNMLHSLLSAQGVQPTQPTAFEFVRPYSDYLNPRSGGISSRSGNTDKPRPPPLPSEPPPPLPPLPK
test: LANCE Ultra kinase activity inhibition assay, CDK9/CycT
Assay type: biochemical
test-settings: ATP 10 μM, highest compound concentration 1 μM
Quick note: give the figure in µM, leave out the unit.

compound | val
CC(C)(c1cc(N[C@H]2CC[C@H](N)C2)n2nccc2n1)C1CCC1 | 0.034
C[C@@H](c1cc(N[C@H]2CC[C@H](N)C2)n2nccc2n1)C1CC1 | 0.023
CC(C)(c1cc(N[C@H]2CC[C@H](N)C2)n2ncc(Cl)c2n1)C1CC1 | 0.018

In: Provide one value: measured IC50 of CC[C@H](c1cc(N[C@H]2CC[C@H](N)C2)n2ncc(C)c2n1)C1CC1 [Compound Z-30-P1]
Out: 0.01

----------
Measured IC50 values are reported for all entries that follow.
system-name: CDK9/CycT (Homo sapiens (Human), UniProt P50750)
test: LANCE Ultra kinase activity inhibition assay, CDK9/CycT
Assay type: biochemical
test-settings: ATP 10 μM, highest compound concentration 1 μM
Quick note: give the figure in µM, leave out the unit.

Solved entries (count: 2):
compound | IC50 (µM)
Cc1cnn2c(N[C@H]3CC[C@H](N)C3)cc(CC3CCC3)nc12 [Compound Z-51] | 0.065
CC(c1cc(N[C@H]2CC[C@H](N)C2)n2nccc2n1)C1CC1 (stereo partly drawn) [Compound Z-5] | 0.017

Moving on to another compound below.
In: Provide one value: measured IC50 of Cc1cnn2c(N[C@H]3CC[C@H](N)C3)cc(C(C)(C)C3CC3)nc12 [Compound Z-34]
Out: 0.036

----------
system-name: CDK1/CycB (Homo sapiens (Human), UniProt P06493)
test: LANCE Ultra kinase activity inhibition assay, CDK1/CycB
Format: biochemical
test-settings: ATP 4 μM, highest compound concentration 10 μM
Decision: IC50 beneath 1 µM gives 1; IC50 meeting or exceeding 1 µM gives -1.

Field: example entries. Status: answers known.
molecule | label
CC(=O)N[C@H]1CC[C@H](Nc2cc(C(C)C3CC3)nc3c(Cl)cnn23)C1 (some centres unmarked) | 1
CC(c1cc(N[C@H]2CC[C@H](NC(=N)N)C2)n2ncc(Cl)c2n1)C1CC1 (some centres unmarked) | -1
N[C@H]1CC[C@H](Nc2cc(CC3CCC3)nc3ccnn23)C1 | -1
Cc1cnn2c(N[C@H]3CC[C@H](N)C3)cc(CC3CCC3)nc12 | -1

As a next step, examine the molecule that follows.
In: Please determine if "CC(C)c1cnn2c(N[C@H]3CC[C@H](N)C3)cc(C(C3CC3)C3CC3)nc12" is below 1 µM in terms of IC50.
Out: -1
